- Assay Comment: Hydrodynamic radius / size distribution of micelles by dynamic light scattering (DLS)
- Assay type: physicochemical
- Condition Context: 1.0 wt % amphiphile
Each entry below carries its reported Rh (nm), hydrodynamic radius of micelle.
Numeric answer only, unit nm assumed.

[[record]]
molecule = "CCCCCCCCCCCCCCC(CO[C@@H]1OC(CO)[C@@H](O)C(O)C1O)(CO[C@@H]1OC(CO)[C@@H](O)C(O)C1O)Cc1cc(CC(CCCCCCCCCCCCCC)(CO[C@@H]2OC(CO)[C@@H](O)C(O)C2O)CO[C@@H]2OC(CO)[C@@H](O)C(O)C2O)cc(CC(CCCCCCCCCCCCCC)(CO[C@@H]2OC(CO)[C@@H](O)C(O)C2O)CO[C@@H]2OC(CO)[C@@H](O)C(O)C2O)c1 (stereo partly drawn)"
unit_of_measurement = "nm"
observed_measurement = 3.4

[[record]]
molecule = "CCCCCCCCCCCCC(CO[C@@H]1OC(CO)[C@@H](O)C(O)C1O)(CO[C@@H]1OC(CO)[C@@H](O)C(O)C1O)Cc1cc(CC(CCCCCCCCCCCC)(CO[C@@H]2OC(CO)[C@@H](O)C(O)C2O)CO[C@@H]2OC(CO)[C@@H](O)C(O)C2O)cc(CC(CCCCCCCCCCCC)(CO[C@@H]2OC(CO)[C@@H](O)C(O)C2O)CO[C@@H]2OC(CO)[C@@H](O)C(O)C2O)c1 (stereo partly drawn)"
unit_of_measurement = "nm"
observed_measurement = 3.1


We now examine a further molecule.
# Rh (nm), hydrodynamic radius of micelle of CCCCCCCCCCC(CO[C@@H]1OC(CO)[C@@H](O)C(O)C1O)(CO[C@@H]1OC(CO)[C@@H](O)C(O)C1O)Cc1cc(CC(CCCCCCCCCC)(CO[C@@H]2OC(CO)[C@@H](O)C(O)C2O)CO[C@@H]2OC(CO)[C@@H](O)C(O)C2O)cc(CC(CCCCCCCCCC)(CO[C@@H]2OC(CO)[C@@H](O)C(O)C2O)CO[C@@H]2OC(CO)[C@@H](O)C(O)C2O)c1 (stereo partly drawn) = 2.9

###

- Assay Comment: Hydrodynamic radius / size distribution of micelles by dynamic light scattering (DLS)
- Type: physicochemical
- Condition Context: 1.0 wt % amphiphile
Each entry below carries its reported Rh (nm), hydrodynamic radius of micelle.
Numeric answer only, unit nm assumed.

[[record]]
compound = "CCCCCCCCCCCCCCCC(CO[C@@H]1OC(CO)[C@@H](O)C(O)C1O)(CO[C@@H]1OC(CO)[C@@H](O)C(O)C1O)Cc1cc(CC(CCCCCCCCCCCCCCC)(CO[C@@H]2OC(CO)[C@@H](O)C(O)C2O)CO[C@@H]2OC(CO)[C@@H](O)C(O)C2O)cc(CC(CCCCCCCCCCCCCCC)(CO[C@@H]2OC(CO)[C@@H](O)C(O)C2O)CO[C@@H]2OC(CO)[C@@H](O)C(O)C2O)c1 (stereo partly drawn)"
observed_measurement = 3.6

[[record]]
compound = "CCCCCCCCCCCCCC(CO[C@@H]1OC(CO)[C@@H](O)C(O)C1O)(CO[C@@H]1OC(CO)[C@@H](O)C(O)C1O)Cc1cc(CC(CCCCCCCCCCCCC)(CO[C@@H]2OC(CO)[C@@H](O)C(O)C2O)CO[C@@H]2OC(CO)[C@@H](O)C(O)C2O)cc(CC(CCCCCCCCCCCCC)(CO[C@@H]2OC(CO)[C@@H](O)C(O)C2O)CO[C@@H]2OC(CO)[C@@H](O)C(O)C2O)c1 (stereo partly drawn)"
observed_measurement = 3.2


We now examine a further compound.
# Rh (nm), hydrodynamic radius of micelle of CCCCCCCCCCCC(CO[C@@H]1OC(CO)[C@@H](O)C(O)C1O)(CO[C@@H]1OC(CO)[C@@H](O)C(O)C1O)Cc1cc(CC(CCCCCCCCCCC)(CO[C@@H]2OC(CO)[C@@H](O)C(O)C2O)CO[C@@H]2OC(CO)[C@@H](O)C(O)C2O)cc(CC(CCCCCCCCCCC)(CO[C@@H]2OC(CO)[C@@H](O)C(O)C2O)CO[C@@H]2OC(CO)[C@@H](O)C(O)C2O)c1 (stereo partly drawn) = 3.0

###

- Assay Comment: Critical micelle concentration by fluorophore encapsulation using diphenylhexatriene (DPH)
- Format: physicochemical
- Condition Context: aqueous solution
Readout Label: CMC

[[record]]
compound = "CCCCCCCCCCCCC(CO[C@@H]1OC(CO)[C@@H](O)C(O)C1O)(CO[C@@H]1OC(CO)[C@@H](O)C(O)C1O)Cc1cc(CC(CCCCCCCCCCCC)(CO[C@@H]2OC(CO)[C@@H](O)C(O)C2O)CO[C@@H]2OC(CO)[C@@H](O)C(O)C2O)cc(CC(CCCCCCCCCCCC)(CO[C@@H]2OC(CO)[C@@H](O)C(O)C2O)CO[C@@H]2OC(CO)[C@@H](O)C(O)C2O)c1 (stereo partly shown) [MGA-C12]"
observed_measurement = "~3.5 µM"

[[record]]
compound = "CCCCCCCCCCCC(CO[C@@H]1OC(CO)[C@@H](O)C(O)C1O)(CO[C@@H]1OC(CO)[C@@H](O)C(O)C1O)Cc1cc(CC(CCCCCCCCCCC)(CO[C@@H]2OC(CO)[C@@H](O)C(O)C2O)CO[C@@H]2OC(CO)[C@@H](O)C(O)C2O)cc(CC(CCCCCCCCCCC)(CO[C@@H]2OC(CO)[C@@H](O)C(O)C2O)CO[C@@H]2OC(CO)[C@@H](O)C(O)C2O)c1 (stereo partly shown) [MGA-C11]"
observed_measurement = "~5 µM"

[[record]]
compound = "CCCCCCCCCCCCCCCC(CO[C@@H]1OC(CO)[C@@H](O)C(O)C1O)(CO[C@@H]1OC(CO)[C@@H](O)C(O)C1O)Cc1cc(CC(CCCCCCCCCCCCCCC)(CO[C@@H]2OC(CO)[C@@H](O)C(O)C2O)CO[C@@H]2OC(CO)[C@@H](O)C(O)C2O)cc(CC(CCCCCCCCCCCCCCC)(CO[C@@H]2OC(CO)[C@@H](O)C(O)C2O)CO[C@@H]2OC(CO)[C@@H](O)C(O)C2O)c1 (stereo partly shown) [MGA-C15]"
observed_measurement = "~1.5 µM"

[[record]]
compound = "CCCCCCCCCCC(CO[C@@H]1OC(CO)[C@@H](O)C(O)C1O)(CO[C@@H]1OC(CO)[C@@H](O)C(O)C1O)Cc1cc(CC(CCCCCCCCCC)(CO[C@@H]2OC(CO)[C@@H](O)C(O)C2O)CO[C@@H]2OC(CO)[C@@H](O)C(O)C2O)cc(CC(CCCCCCCCCC)(CO[C@@H]2OC(CO)[C@@H](O)C(O)C2O)CO[C@@H]2OC(CO)[C@@H](O)C(O)C2O)c1 (stereo partly shown) [MGA-C10]"
observed_measurement = "~8 µM"


# CMC of CCCCCCCCCCCCCC(CO[C@@H]1OC(CO)[C@@H](O)C(O)C1O)(CO[C@@H]1OC(CO)[C@@H](O)C(O)C1O)Cc1cc(CC(CCCCCCCCCCCCC)(CO[C@@H]2OC(CO)[C@@H](O)C(O)C2O)CO[C@@H]2OC(CO)[C@@H](O)C(O)C2O)cc(CC(CCCCCCCCCCCCC)(CO[C@@H]2OC(CO)[C@@H](O)C(O)C2O)CO[C@@H]2OC(CO)[C@@H](O)C(O)C2O)c1 (stereo partly shown) [MGA-C13] = ~3 µM

# CMC of CCCCCCCCCCCCCCC(CO[C@@H]1OC(CO)[C@@H](O)C(O)C1O)(CO[C@@H]1OC(CO)[C@@H](O)C(O)C1O)Cc1cc(CC(CCCCCCCCCCCCCC)(CO[C@@H]2OC(CO)[C@@H](O)C(O)C2O)CO[C@@H]2OC(CO)[C@@H](O)C(O)C2O)cc(CC(CCCCCCCCCCCCCC)(CO[C@@H]2OC(CO)[C@@H](O)C(O)C2O)CO[C@@H]2OC(CO)[C@@H](O)C(O)C2O)c1 (stereo partly shown) [MGA-C14] = ~2 µM

# CMC of CCCCCCCCCCCCO[C@@H]1O[C@H](CO)[C@@H](O[C@H]2O[C@H](CO)[C@@H](O)[C@H](O)[C@H]2O)[C@H](O)[C@H]1O [DDM, n-dodecyl-β-D-maltopyranoside, reference compound] = ~170 µM

###

- Assay Comment: Critical micelle concentration by fluorophore encapsulation using diphenylhexatriene (DPH)
- Format: physicochemical
- Condition Context: aqueous solution
Readout Label: CMC (wt %)

In the examples that follow, each entry is paired with its recorded CMC (wt %).
[[record]]
compound = "CCCCCCCCCCC(CO[C@@H]1OC(CO)[C@@H](O)C(O)C1O)(CO[C@@H]1OC(CO)[C@@H](O)C(O)C1O)Cc1cc(CC(CCCCCCCCCC)(CO[C@@H]2OC(CO)[C@@H](O)C(O)C2O)CO[C@@H]2OC(CO)[C@@H](O)C(O)C2O)cc(CC(CCCCCCCCCC)(CO[C@@H]2OC(CO)[C@@H](O)C(O)C2O)CO[C@@H]2OC(CO)[C@@H](O)C(O)C2O)c1 (stereo partly shown)"
readout_label = "CMC (wt %)"
observed_measurement = "~0.0014 wt %"

[[record]]
compound = "CCCCCCCCCCCCCC(CO[C@@H]1OC(CO)[C@@H](O)C(O)C1O)(CO[C@@H]1OC(CO)[C@@H](O)C(O)C1O)Cc1cc(CC(CCCCCCCCCCCCC)(CO[C@@H]2OC(CO)[C@@H](O)C(O)C2O)CO[C@@H]2OC(CO)[C@@H](O)C(O)C2O)cc(CC(CCCCCCCCCCCCC)(CO[C@@H]2OC(CO)[C@@H](O)C(O)C2O)CO[C@@H]2OC(CO)[C@@H](O)C(O)C2O)c1 (stereo partly shown)"
readout_label = "CMC (wt %)"
observed_measurement = "~0.0006 wt %"

[[record]]
compound = "CCCCCCCCCCCC(CO[C@@H]1OC(CO)[C@@H](O)C(O)C1O)(CO[C@@H]1OC(CO)[C@@H](O)C(O)C1O)Cc1cc(CC(CCCCCCCCCCC)(CO[C@@H]2OC(CO)[C@@H](O)C(O)C2O)CO[C@@H]2OC(CO)[C@@H](O)C(O)C2O)cc(CC(CCCCCCCCCCC)(CO[C@@H]2OC(CO)[C@@H](O)C(O)C2O)CO[C@@H]2OC(CO)[C@@H](O)C(O)C2O)c1 (stereo partly shown)"
readout_label = "CMC (wt %)"
observed_measurement = "~0.009 wt %"


# CMC (wt %) of CCCCCCCCCCCCCCC(CO[C@@H]1OC(CO)[C@@H](O)C(O)C1O)(CO[C@@H]1OC(CO)[C@@H](O)C(O)C1O)Cc1cc(CC(CCCCCCCCCCCCCC)(CO[C@@H]2OC(CO)[C@@H](O)C(O)C2O)CO[C@@H]2OC(CO)[C@@H](O)C(O)C2O)cc(CC(CCCCCCCCCCCCCC)(CO[C@@H]2OC(CO)[C@@H](O)C(O)C2O)CO[C@@H]2OC(CO)[C@@H](O)C(O)C2O)c1 (stereo partly shown) = ~0.0004 wt %

# CMC (wt %) of CCCCCCCCCCCCCCCC(CO[C@@H]1OC(CO)[C@@H](O)C(O)C1O)(CO[C@@H]1OC(CO)[C@@H](O)C(O)C1O)Cc1cc(CC(CCCCCCCCCCCCCCC)(CO[C@@H]2OC(CO)[C@@H](O)C(O)C2O)CO[C@@H]2OC(CO)[C@@H](O)C(O)C2O)cc(CC(CCCCCCCCCCCCCCC)(CO[C@@H]2OC(CO)[C@@H](O)C(O)C2O)CO[C@@H]2OC(CO)[C@@H](O)C(O)C2O)c1 (stereo partly shown) = ~0.0003 wt %

# CMC (wt %) of CCCCCCCCCCCCO[C@@H]1O[C@H](CO)[C@@H](O[C@H]2O[C@H](CO)[C@@H](O)[C@H](O)[C@H]2O)[C@H](O)[C@H]1O [DDM, n-dodecyl-β-D-maltopyranoside, reference compound] = ~0.0087 wt %

# CMC (wt %) of CCCCCCCCCCCCC(CO[C@@H]1OC(CO)[C@@H](O)C(O)C1O)(CO[C@@H]1OC(CO)[C@@H](O)C(O)C1O)Cc1cc(CC(CCCCCCCCCCCC)(CO[C@@H]2OC(CO)[C@@H](O)C(O)C2O)CO[C@@H]2OC(CO)[C@@H](O)C(O)C2O)cc(CC(CCCCCCCCCCCC)(CO[C@@H]2OC(CO)[C@@H](O)C(O)C2O)CO[C@@H]2OC(CO)[C@@H](O)C(O)C2O)c1 (stereo partly shown) = ~0.0006 wt %
